# study target: LYP C129/231S (Homo sapiens, UniProt Q9Y2R2, C129S/C231S)
# Sequence (Q9Y2R2 24-289 C129S/C231S limits assumed): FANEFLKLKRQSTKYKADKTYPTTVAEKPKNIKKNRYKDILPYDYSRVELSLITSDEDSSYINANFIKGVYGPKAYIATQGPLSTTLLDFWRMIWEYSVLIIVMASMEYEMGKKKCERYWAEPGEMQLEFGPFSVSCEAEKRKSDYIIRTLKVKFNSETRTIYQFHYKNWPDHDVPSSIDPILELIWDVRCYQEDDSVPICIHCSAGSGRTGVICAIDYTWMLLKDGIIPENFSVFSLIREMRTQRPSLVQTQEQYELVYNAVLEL
# method description: Enzyme inhibition assay
# Format: biochemical
# measurement conditions: LYP C129/231S, 20 nM enzyme, 1.5 μM DiFMUP
assay metric: IC50 (µM)
Give a bare numeral; the unit µM is implied.

[ask] Suppose we examine the compound N#CCC[PH](CCC#N)([Au][Cl])c1ccccc1 ; what IC50 value has been reported?
[reply] 40

----------
# study target: LYP C231S (Homo sapiens, UniProt Q9Y2R2, C231S)
# method description: Enzyme inhibition assay
# measurement conditions: 5 nM enzyme, 1.5 μM DiFMUP
assay metric: IC50
Express the reported value numerically, then name its unit.

[ask] Suppose we examine the compound N#CCC[PH](CCC#N)([Au][Cl])c1ccccc1 ; what IC50 value has been reported?
[reply] 4 µM

Cited source: paper PMC2873867
